Attribute: OD450 nm
experimental target: T1, human EGFRvIII-hFc protein (human, UniProt P00533 25-645)
T1 construct: extracellular domain; made in HEK293 cells, purified on protein A; also called immunogen A; hFc-tagged EGFRvIII protein; not shown: human IgG Fc fragment (hFc) of the pCpC vector
assay remarks: ELISA, coated EGFRvIII-hFc, antibody 0.001 nM
Just the number, please.

Murine anti-43H6 (antibody, V domains shown, murine hybridoma antibody; also called 43H6A1) VH: INAEYAGGPGLVKPSQSLSLTCTVTDYSITSDYAWNWIRQFPGNKLEWMGYISYSGNTNYNPSLKSRISITRDTSKNQFFLQLNSVTTEDTATYYCARLGRGFAYWGQGTLVTVSA VL: DILMTQSPSSMSVSLGDTVSITCHASQDINSNIGWLQQKPGTSFKGLIYHGRNLEDGVPSRFSGSGSGEDYSLTISSLESEDFADYYCVQYAHFPPTFGAGTKLELK | 0.11

Record request: OD450 nm value, item Murine anti-51G7 (antibody, V domains shown, murine hybridoma antibody; also called 51G7C2) VH: EVQLQQSGAELVKPGASVKLSCTASGFNIKDFYIHWVKQRTEQGLEWIGRIDPEDGETKYAPKFQDKATIIADTSSNTAYLQLSSLTSEDTAVYYCASSSYYGNNYWGQGTTLTVSS VL: QIVLTQSPAIMSASPGEKVTLTCSASSSVSSNYLYWYQQKPGSSPKLWIYSTSNLASGVPARFSGSGSGTSYSLTISSMEAEDAASYFCHQWSSFPYTFGGGTKLEIK
0.09

Item Murine anti-64F1 (antibody, V domains shown, murine hybridoma antibody; also called 64F1F8) VH: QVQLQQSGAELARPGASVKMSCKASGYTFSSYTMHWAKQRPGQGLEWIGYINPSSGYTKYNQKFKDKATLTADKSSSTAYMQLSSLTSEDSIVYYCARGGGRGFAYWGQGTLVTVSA VL: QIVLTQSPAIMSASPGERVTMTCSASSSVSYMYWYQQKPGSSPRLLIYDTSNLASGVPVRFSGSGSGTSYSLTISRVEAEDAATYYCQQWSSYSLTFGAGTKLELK has what recorded OD450 nm?
0.09
